- experiment: Evaluation of hue on glossy paper (L*, a*, b*, C* of inkjet recorded image)
- Type: physicochemical
- Design: key: CIELAB a* chromaticity value
- protocol-conditions: Glossy paper manufactured by SEIKO-EPSON CORPORATION; ink with 6.0 parts compound
parameter-measured: Chromaticity a*

| compound | Chromaticity a* |
| --- | --- |
| O=C(c1cccc(S(=O)(=O)O)c1)c1c2c3c(c(Nc4cc(Nc5nc(O)nc(Nc6ccccc6S(=O)(=O)O)n5)c(S(=O)(=O)O)cc4S(=O)(=O)O)cc(Oc4ccc(-c5ccc(S(=O)(=O)O)cc5)cc4S(=O)(=O)O)c3[nH]c1=O)C(=O)c1ccccc1-2 | 82.3 |
| Cn1c(=O)cc2c3c(c(Nc4cc(Nc5nc(O)nc(Nc6cc(S(=O)(=O)O)ccc6S(=O)(=O)O)n5)ccc4S(=O)(=O)O)ccc31)C(=O)c1ccccc1-2 [Comparative Example 1, reference compound] | 79.9 |
| O=C(O)c1ccccc1Nc1nc(O)nc(Nc2cc(Nc3cc(Oc4ccc(-c5ccc(S(=O)(=O)O)cc5)cc4S(=O)(=O)O)c4[nH]c(=O)c(C(=O)c5cccc(S(=O)(=O)O)c5)c5c4c3C(=O)c3ccccc3-5)c(S(=O)(=O)O)cc2S(=O)(=O)O)n1 | 80.6 |
| O=C(O)c1cc(Nc2nc(O)nc(Nc3cc(Nc4cc(Oc5ccc(-c6ccc(S(=O)(=O)O)cc6)cc5S(=O)(=O)O)c5[nH]c(=O)c(C(=O)c6cccc(S(=O)(=O)O)c6)c6c5c4C(=O)c4ccccc4-6)c(S(=O)(=O)O)cc3S(=O)(=O)O)n2)cc(C(=O)O)c1 | 77.4 |
